# Tested on: KYSE-30
# TEST PROTOCOL: Antiproliferative activity against human KYSE-30 cells assessed as inhibition of cell proliferation measured after 48 hrs by CCK8 assay
# Format: functional, cell-based
# ASSAY CONDITIONS: KYSE-30, 48 h
Label True when IC50 < 20 µM; otherwise False.

> print(dat)
                             chemical.smiles  target.or.system  label
 1       COc1ccc(CC(=O)N2CCc3cc(Br)ccc32)cc1           KYSE-30  False
 2  COc1cc2c(c(OC)c1OC)-c1ccc(OC)c(=O)cc1[C@@H](NC(C)=O)CC2           KYSE-30   True
 3         O=C(c1ccc(F)cc1)N1CCc2cc(Br)ccc21           KYSE-30  False
 4         Cc1ccc(C(=O)N2CCc3cc(Br)ccc32)cc1           KYSE-30  False
 5     COc1cc(C(=O)N2CCCc3ccccc32)cc(OC)c1OC           KYSE-30   True
 6        O=C(c1ccc(Br)cc1)N1CCc2cc(Br)ccc21           KYSE-30  False
 7  COc1cc(C(=O)N2CCc3cc([N+](=O)[O-])ccc32)cc(OC)c1OC           KYSE-30   True
 8        COc1ccc(C(=O)N2CCc3cc(Br)ccc32)cc1           KYSE-30   True
 9      COc1cc(C(=O)N2CCc3ccccc32)cc(OC)c1OC           KYSE-30   True
10  COc1cc(C(=O)N2CCc3cc(Br)ccc32)cc(OC)c1OC           KYSE-30   True
11    COc1cc(C(=O)N2CCCCc3ccccc32)cc(OC)c1OC           KYSE-30   True
12       O=C(Cc1ccc(Br)cc1)N1CCc2cc(Br)ccc21           KYSE-30  False
13           O=C(Cc1ccccc1)N1CCc2cc(Br)ccc21           KYSE-30  False
14        Cc1ccc(CC(=O)N2CCc3cc(Br)ccc32)cc1           KYSE-30  False
15        O=C(Cc1ccc(F)cc1)N1CCc2cc(Br)ccc21           KYSE-30  False

====

# System: KYSE-450
# TEST PROTOCOL: Antiproliferative activity against human KYSE-450 cells assessed as inhibition of cell proliferation measured after 48 hrs by CCK8 assay
# Assay type: functional, cell-based
# ASSAY CONDITIONS: KYSE-450, 48 h
pIC50: −log10 of the molar value.
MEASURE: pIC50

> print(dat)
                            chemical.smiles  reading
1  COc1cc(C(=O)N2CCc3cc(Br)ccc32)cc(OC)c1OC     5.83
